Entry source: patent EP0114128A1

Parameter MIC: see the listing below.
test system: Pseudomonas aeruginosa 1771 m; experiment: In vitro activity, dilution method in liquid medium (MIC); format: cell-based; details: 24 H incubation at 37°C, read-out: concentrations minimales inhibitrices (C. M. I.)
# unit: µg/mL | format: bare number

Field: example entries. Status: answers known.
>>> print(df.to_string())
                                   molecule  parameter_measured  test_result
0  C[C@@H]1[C@H](NC(=O)/C(=N\OCC(=O)O)c2csc(N)n2)C(=O)N1c1nn[nH]n1 (racemic)                 MIC          2.5
1  C[C@@H]1[C@H](NC(=O)/C(=N\OC(C)(C)C(=O)O)c2csc(N)n2)C(=O)N1c1nn[nH]n1 (racemic)                 MIC          0.6

(Q) Give MIC for the following molecule: `CO/N=C(\C(=O)N[C@H]1CN(c2nn[nH]n2)C1=O)c1csc(N)n1`
(A) 5
